test system: HOP-62 NSCLC; assay: NCI-60 one-dose screen, 48 h (100 = growth as untreated, 0 = no growth, -100 = all killed); details: 10 µM unless noted
This is part of a sample that, as a whole, favours compounds with a hit. Of some 83,000 tested, about 20% had one in any assay.
endpointLabel: growth (%)
Please reply with the bare figure in % and do not write the unit itself.

compound	assayedSystem	growth [%]
O=C(NNc1nc2cc(C(F)(F)F)ccc2n2cccc12)c1cnccn1	HOP-62 NSCLC	-73.4
CC1(C)CC[C@]2(C(=O)Nc3ccc(F)cc3)CC[C@]3(C)C(=CCC4[C@@]5(C)C[C@@H](O)[C@H](O)[C@@](C)(CO)C5CC[C@]43C)C2C1 (some centres not stated)	HOP-62 NSCLC	58.6
Cc1ccccc1[C@H]1C(C(=O)c2ccc(Cl)cc2)C2(N[C@@H]1c1ccccc1)C(=O)Nc1ccc(Cl)cc12 (some centres not stated)	HOP-62 NSCLC	-63.7
CCCCSc1nc(NCCc2c[nH]c3ccccc23)c(C#N)c(-c2ccccc2)n1	HOP-62 NSCLC	39.7
CCOC(=O)/C=C/c1cccc2c1C(=O)NC(C)(c1cc3cc(Br)ccc3oc1=O)N2 (configuration not stated)	HOP-62 NSCLC	65.6
CC1=C(C(=O)c2ccccc2)C(c2cccc3ccccc23)n2c(nc3ccccc32)N1 (configuration not stated)	HOP-62 NSCLC	40.4
O=c1oc2ccccc2cc1-c1csc(N=Nc2c(O)[nH]c3ccc(Cl)cc23)n1	HOP-62 NSCLC	101
Cc1ccc(Cc2cnc(NC(=O)c3ccc(/C=C4\SC(=S)N(C)C4=O)cc3)s2)cc1	HOP-62 NSCLC	46.4
C=Cn1cc(C(=O)O)c(=O)c2cc(F)c(N3CCN(c4nccc(-c5nccs5)n4)CC3)cc21	HOP-62 NSCLC	-34.4
COc1cc(C2CC(c3cc(OC)c(OC)c(OC)c3)=NN2C(C)=O)ccc1OCc1ccc(F)cc1 (configuration not stated)	HOP-62 NSCLC	74.2

Ask: Tell me reported growth for CCOC(=O)C1=C(N)N(c2ccccc2)C2=C(C(=O)CC(C)(C)C2)C1c1ccc([N+](=O)[O-])cc1 (configuration not stated) , tested with HOP-62 NSCLC.
Reply: 99

Ask: Tell me reported growth for CCOC(=O)C1=C(N)N(c2ccccc2)C2=C(C(=O)CC(C)(C)C2)C1c1ccc(N2CCOCC2)cc1 (configuration not stated) , tested with HOP-62 NSCLC.
Reply: 102

Ask: Tell me reported growth for O=C(O)c1ccc(-c2ccc(/C=N/NC(=O)c3[nH]c4ccc(Br)cc4c3-c3ccccc3)o2)cc1 , tested with HOP-62 NSCLC.
Reply: 9.47

Ask: Tell me reported growth for C#CCOc1cc(N(CC)CC)ccc1C(C(=O)NC(C)(C)C)N(C(=O)C1CCc2cc(F)ccc2O1)c1ccc(Br)cc1 (configuration not stated) , tested with HOP-62 NSCLC.
Reply: 77.1

Ask: Tell me reported growth for COc1cc2oc(-c3cccc(C(=O)Nc4cccc([N+](=O)[O-])c4)c3)cc(=O)c2c(OC)c1OC , tested with HOP-62 NSCLC.
Reply: -13.4

Ask: Tell me reported growth for Cn1cc(-c2cc3nc(-c4cn(C)c5ncc(Br)cc45)cc(N)n3n2)c2cc(Cl)ccc21 , tested with HOP-62 NSCLC.
Reply: -78.1

Ask: Tell me reported growth for COc1ccc(C2=NN(c3ccccc3)C(c3ccc(OCc4ccccc4)c(OC)c3)C2)cc1OC (configuration not stated) , tested with HOP-62 NSCLC.
Reply: 109

Just for reference, PubChem BioAssay (NCI) is where these values come from.
